Answer each item with its documented IC50.
Molecular target: B-Raf^V600E kinase (Homo sapiens, UniProt P15056, V600E)
Construct: purchased Upstate Biotechnology
Sequence (P15056 whole entry V600E): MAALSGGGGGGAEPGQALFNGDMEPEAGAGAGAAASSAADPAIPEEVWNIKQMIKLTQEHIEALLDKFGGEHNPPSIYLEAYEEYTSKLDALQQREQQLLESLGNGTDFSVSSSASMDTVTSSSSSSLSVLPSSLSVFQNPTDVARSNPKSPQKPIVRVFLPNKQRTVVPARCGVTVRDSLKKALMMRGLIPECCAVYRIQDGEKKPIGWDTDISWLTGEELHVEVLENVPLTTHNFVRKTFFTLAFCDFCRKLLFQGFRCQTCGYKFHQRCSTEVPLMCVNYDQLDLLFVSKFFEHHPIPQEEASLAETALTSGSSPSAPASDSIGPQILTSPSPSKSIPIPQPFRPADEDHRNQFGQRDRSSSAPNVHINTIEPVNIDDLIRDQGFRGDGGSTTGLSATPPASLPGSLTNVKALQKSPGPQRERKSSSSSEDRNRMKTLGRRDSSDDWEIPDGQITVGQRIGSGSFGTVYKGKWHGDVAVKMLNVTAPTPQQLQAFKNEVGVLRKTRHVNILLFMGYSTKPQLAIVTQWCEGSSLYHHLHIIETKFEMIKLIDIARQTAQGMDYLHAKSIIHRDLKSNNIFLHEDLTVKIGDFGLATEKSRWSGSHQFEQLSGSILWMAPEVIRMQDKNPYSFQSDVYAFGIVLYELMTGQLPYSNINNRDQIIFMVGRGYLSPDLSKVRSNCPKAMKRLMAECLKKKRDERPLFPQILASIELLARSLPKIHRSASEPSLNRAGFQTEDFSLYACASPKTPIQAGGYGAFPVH
Experiment: B-Raf V600E kinase assay ([33P] incorporation into MEK1 K97R)
Assay type: biochemical
Conditions: recombinant B-Raf^V600E, 8 μM ATP, 30 min, 30° C.; read-out: IC50 ranking against B-Raf^V600E kinase

Request: For the compound shown here, CCCS(=O)(=O)Nc1ccc(F)c(Nc2ccc3ncc(OC)nc3c2C#N)c1Cl [compound 46] , give the reported IC50.
Result: < 300 nM

Request: Next up: CCCS(=O)(=O)Nc1ccc(F)c(Nc2ccc3ncc(OCCN4CCOCC4)nc3c2[N+](=O)[O-])c1F [compound 6]
Result: < 300 nM

Request: How about CCCS(=O)(=O)Nc1ccc(F)c(Nc2ccc3ncc(OCC)nc3c2C#N)c1F [compound 17] ?
Result: < 300 nM

Request: Same read-out for CCCS(=O)(=O)Nc1ccc(F)c(Nc2ccc3ncc(OC)nc3c2C(=O)O)c1F [compound 30] ?
Result: 300 to 1000 nM

Request: Quick one: N#Cc1c(Nc2c(F)ccc(NS(=O)(=O)c3ccccc3)c2Cl)ccc2ncc(N3CCOCC3)nc12 [compound 49]
Result: < 300 nM

Request: Similarly, CN(C)c1cnc2ccc(Nc3cc(NS(=O)(=O)c4ccccc4)ccc3F)c(C#N)c2n1 [compound 37] ?
Result: < 300 nM

Request: What would you report for CCCS(=O)(=O)Nc1ccc(F)c(Nc2ccc3ncc(Nc4cccnc4)nc3c2)c1F [compound 12] ?
Result: < 300 nM

Request: Would you kindly repeat that for CCCS(=O)(=O)Nc1ccc(C)c(Nc2ccc3ncc(OC)nc3c2C#N)c1 [compound 40] ?
Result: 300 to 1000 nM

* * *

Test system: B-Raf^V600E mutant A375 melanoma cell
Experiment: Cell proliferation assay (CELLTITER 96), A375
Type: cell-based
Settings: Homo sapiens, A-375; A375, 72 hours; read-out: Cytotoxicity (IC50 Ranking) A375 (B-Raf^V600E)
pIC50: −log10 of the molar value.
MEASURE: pIC50

Request: I have this compound here, CCCS(=O)(=O)Nc1ccc(F)c(Nc2ccc3ncc(O)nc3c2C#N)c1F , and I need its recorded pIC50.
Result: 6.00 to 6.52

Request: Consider next the compound CCCS(=O)(=O)Nc1ccc(C)c(Nc2ccc3ncc(N4CCOCC4)nc3c2C#N)c1 in the same way.
Result: 5.00 to 6.00

Request: Moving on to the next compound: CCCS(=O)(=O)Nc1ccc(F)c(Nc2ccc3ncc(Nc4ccc(F)cc4F)nc3c2)c1F
Result: 6.00 to 6.52

Request: Try this compound too: CCCS(=O)(=O)Nc1ccc(F)c(Nc2ccc3ncc(N4CCOCC4)nc3c2C#N)c1Cl
Result: > 6.52

Request: What do you get for CN(C)c1cnc2ccc(Nc3cc(NS(=O)(=O)c4ccccc4)ccc3F)c(C#N)c2n1 ?
Result: 5.00 to 6.00

Request: Would you kindly repeat that for CCCS(=O)(=O)Nc1ccc(F)c(Nc2ccc3ncc(OCCN(C)C)nc3c2[N+](=O)[O-])c1F ?
Result: > 6.52

Request: Next up: CCCS(=O)(=O)Nc1c(F)ccc(Nc2ccc3ncc(OC)nc3c2C#N)c1F
Result: > 6.52

Request: Follow-up item: N#Cc1c(Nc2c(F)ccc(NS(=O)(=O)c3ccccc3)c2Cl)ccc2ncc(N3CCOCC3)nc12
Result: > 6.52

Request: Likewise for N#Cc1c(Nc2cc(NS(=O)(=O)c3ccccc3)ccc2F)ccc2ncc(N3CCOCC3)nc12 ?
Result: 6.00 to 6.52

Request: Another compound to look at: CCCS(=O)(=O)Nc1cc(Nc2ccc3ncc(OC)nc3c2C#N)ccc1F
Result: > 6.52

Request: Another compound to check: CCCS(=O)(=O)Nc1ccc(F)c(Nc2ccc3ncc(OCCOC)nc3c2[N+](=O)[O-])c1F
Result: > 6.52

Request: # repeat for CCCS(=O)(=O)Nc1ccc(F)c(Nc2ccc3ncc(OCC)nc3c2C#N)c1F
Result: > 6.52

Request: Now consider COc1cnc2ccc(Nc3cc(NS(C)(=O)=O)ccc3F)c(C#N)c2n1 and answer again.
Result: 5.00 to 6.00

Request: Same read-out for COc1cnc2ccc(Nc3cc(NS(=O)(=O)c4ccccc4)ccc3F)c(C#N)c2n1 ?
Result: > 6.52

Request: Again, but for CCCS(=O)(=O)Nc1cccc(Nc2ccc3ncc(N4CCOCC4)nc3c2C#N)c1C
Result: > 6.52

Request: What would you report for CCCS(=O)(=O)Nc1ccc(F)c(Nc2ccc3ncc(OCCN4CCOCC4)nc3c2C#N)c1F ?
Result: > 6.52

Request: Query CCCS(=O)(=O)Nc1ccc(F)c(Nc2ccc3ncc(OC)nc3c2C#N)c1Cl next
Result: > 6.52
